From: paper PMC10786891

Quick list: pKd per entry.
- TARGET OF ASSAY: T1, EsCas13d, nuclease-dead (Eubacterium siraeum, UniProt B0MS50, R295A;H300A;R849A;H854A)
- T1 sequence: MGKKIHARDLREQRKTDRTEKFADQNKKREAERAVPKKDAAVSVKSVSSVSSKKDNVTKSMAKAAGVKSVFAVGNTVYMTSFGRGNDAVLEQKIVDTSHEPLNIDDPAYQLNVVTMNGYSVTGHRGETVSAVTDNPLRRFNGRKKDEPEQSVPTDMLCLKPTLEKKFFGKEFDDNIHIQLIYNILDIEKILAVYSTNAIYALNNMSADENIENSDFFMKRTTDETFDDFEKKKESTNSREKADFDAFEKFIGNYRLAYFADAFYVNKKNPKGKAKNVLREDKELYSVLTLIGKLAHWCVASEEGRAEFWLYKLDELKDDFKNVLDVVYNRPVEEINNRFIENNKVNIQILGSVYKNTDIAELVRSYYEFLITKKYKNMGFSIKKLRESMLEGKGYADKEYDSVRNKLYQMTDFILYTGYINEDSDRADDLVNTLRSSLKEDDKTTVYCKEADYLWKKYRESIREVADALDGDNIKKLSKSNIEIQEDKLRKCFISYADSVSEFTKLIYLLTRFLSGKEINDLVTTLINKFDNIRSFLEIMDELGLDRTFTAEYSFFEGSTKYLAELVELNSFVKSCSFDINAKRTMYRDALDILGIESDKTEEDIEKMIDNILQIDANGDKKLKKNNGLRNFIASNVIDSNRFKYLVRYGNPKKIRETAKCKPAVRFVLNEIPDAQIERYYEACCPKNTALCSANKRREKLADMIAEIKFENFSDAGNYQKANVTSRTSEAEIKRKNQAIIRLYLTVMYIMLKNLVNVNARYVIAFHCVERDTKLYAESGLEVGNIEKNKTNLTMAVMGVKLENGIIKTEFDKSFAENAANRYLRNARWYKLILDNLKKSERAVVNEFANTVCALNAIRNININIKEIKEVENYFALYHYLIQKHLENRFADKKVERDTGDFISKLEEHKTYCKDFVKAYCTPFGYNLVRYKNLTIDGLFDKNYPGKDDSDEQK
- ASSAY COMMENT: crRNA (strand 1, pre-loaded); Mg2+; 40 mM Tris-HCl pH 7.5, 150 mM NaCl, 6 mM MgCl2, 1 mM DTT, 0.1% Tween-20, 0.2 mg/ml BSA; 25 C; 10 min per concentration, then washed
- RUN CONDITIONS: tags: His6-TwinStrep-SUMO cleaved; N-terminal SNAP kept (SNAP-Surface 488); label: 3' end held by stalled T7 RNA polymerase
Scale for pKd: -log10 of concentration given in mol/L; no unit attached.

Past entries and their recorded results:
BINDER | pKd
target 3 insC 3' of 7,insA 3' of 6 (mixed) RNA 1: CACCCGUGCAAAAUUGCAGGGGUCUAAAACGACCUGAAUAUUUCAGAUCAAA RNA 2: GGGAAUGGAUCCACAUCUACGAAUUCGUUUUUGAUCUGAAAUAUUCCAAGGUCUGCAGAUCGGAAGAGCACACGU | 7.12
target 1 MT 5'PFS GUA 3'PFS CGA (mixed) RNA 1: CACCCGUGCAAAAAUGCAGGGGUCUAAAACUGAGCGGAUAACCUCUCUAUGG RNA 2: GGGAAUGGAUCCACAUCUACGAAUUCGUACCAUAGAGAGGUUAUCCGCUCACGAAGAUCGGAAGAGCACACGU | 7.75
target 1 insA 3' of 22,insU 3' of 15 (mixed) RNA 1: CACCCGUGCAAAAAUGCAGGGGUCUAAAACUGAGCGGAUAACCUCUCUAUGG RNA 2: GGGAAUGGAUCCACAUCUACGAAUUCGUACACAUAGAGUAGGUUAUCCGCUCACCGAGAUCGGAAGAGCACACGU | 7.72

Now for a further binder.
[Q] Recorded pKd of target 1 MT 5'PFS AUG 3'PFS CGG (mixed) RNA 1: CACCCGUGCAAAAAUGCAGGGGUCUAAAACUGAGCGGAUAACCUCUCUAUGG RNA 2: GGGAAUGGAUCCACAUCUACGAAUUCAUGCCAUAGAGAGGUUAUCCGCUCACGGAGAUCGGAAGAGCACACGU , please.
[A] 7.32
